Consider the following molecules; for each one, report its GFP response relative to DMSO.
Experiment: LAP4-GFP expression modulators in yeast, confirmation, cell-based, cherry picks, flow cytometry, mother/daughter gates (AID 2271);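 note: ratio of sample to DMSO plate mean so 100% equals DMSO level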
Conditions: S. cerevisiae LAP4-GFP strain, 3 h, at 10 µM, stronger effect = higher value, 100 means same as DMSO control
One number for each entry, in %.

molecule	GFP response relative to DMSO [%]
COc1ccc(C(=O)/C=C/c2ccccc2C(F)(F)F)cc1	99.2
Oc1c(C(Nc2cccc(C(F)(F)F)c2)c2ccncc2)ccc2cccnc12 (stereo not drawn)	135
Cc1ccc(C(=O)c2nocc2C(=O)c2cccs2)cc1	123
O=C(Nc1nnc(-c2ccccc2Cl)o1)c1ccc(S(=O)(=O)N2CCCCCC2)cc1	97
Cc1[nH]c2ccccc2c1C(=O)C(C)OC(=O)C1CCC1 (stereo not drawn)	100
Cc1ccc(CC2CC(=O)N(Cc3ccco3)C2=O)cc1 (stereo not drawn)	93.8
O=[N+]([O-])c1cc(CN2CCN(c3ccccc3)CC2)c(O)c2ncccc12	161
Nc1ccc2nc(-c3ccc(-c4nc5ccc(N)cc5[nH]4)cc3)[nH]c2c1	111
Cc1cc(N2CCCCC2)n2ncc(-c3ccccc3)c2n1	102
N/C(=N\OC(=O)c1cccc(Br)c1)c1ccccc1	137

Need GFP response relative to DMSO for each of these molecules.
1. O=C(Nc1ccccc1)c1c(F)cccc1F
2. CCCCNC(=O)c1c(O)c2cccc3c2n(c1=O)CCC3
3. O=C(Nc1cc(F)c(Br)cc1F)c1ccc(Cl)cc1
4. Cc1ccc2c(c1)c(/C=C/c1cc[n+](C)cc1)c(C)n2C

1. 97
2. 97.4
3. 97.7
4. 178

---

Assay: RPL19A-GFP modulators, yeast TOR pathway, confirmation, cell-based, S. cerevisiae, flow cytometry, cherry picks, mother/daughter gates (AID 2270)
Details: S. cerevisiae RPL19A-GFP strain, 3 h, measured here: mother cell gate, at 10 µM, stronger effect = lower value, 100 = same GFP as DMSO wells
recorded-endpoint: GFP response vs DMSO (%)
Numbers only, in %.

Hey, can you go through the list below and give me GFP response vs DMSO for every item?
1. O=C(Nc1ccc(NC(=O)c2cc3ccccc3o2)cc1)c1ccc2c(c1)OCCO2
2. Cc1cccn2c(=O)c3cc(C(=O)NCCc4ccccc4)c(=N)n(CCCn4ccnc4)c3nc12
3. CC(=O)Oc1oc(-c2ccccc2)nc1C=Nc1ccccc1
4. COc1ccccc1OCCCc1c(C)n[nH]c1C
5. CN1CCSc2ccc(C(=O)Nc3cccc(F)c3)cc21
6. COc1cccc(N=Nc2ccc3cccnc3c2O)c1

1: 102; 2: 95; 3: 98.6; 4: 115; 5: 96.7; 6: 101

Here are 3 compounds. What values of GFP response vs DMSO were reported for them?
1. Cc1ccc(C(c2cc(Cl)c3cccnc3c2O)N2CCN(C)CC2)cc1 (stereo not drawn)
2. O=C(O)Cc1sc(Nc2ccccc2)nc1-c1cccs1
3. Cc1nn(C)cc1C(C)NC(=O)c1cc(COc2ccc(F)c(F)c2)on1 (stereo not drawn)

1: 67.7; 2: 97.9; 3: 102

Take each entry in turn and give its GFP response vs DMSO.
1. Cn1ncc(N2CCN(S(=O)(=O)c3ccc(Br)cc3)CC2)c(Cl)c1=O
2. O=C(CCC(F)(F)F)N1CCC(CO)(CCc2ccccc2)CC1
3. O=C(COC(=O)c1cccs1)Nc1nc(-c2ccccc2)cs1
4. CCC(C)(C)NC(=O)C(c1cccs1)N(CC1CCCO1)C(=O)Cn1nnc2ccccc21 (stereo not drawn)

[98.7, 102, 98.4, 94.4]

I would be grateful if you could provide GFP response vs DMSO for each of the following entries.
1. CCc1c(C)c2cc(Cl)c(O)c(CN(C)C)c2oc1=O
2. COc1ccc(CNC(=O)c2c(O)c3ccccc3n(C)c2=O)cc1OC
3. COc1ccc(/C=N\NC(=O)c2cc(OCC(F)(F)F)ccc2OCC(F)(F)F)cc1

1: 94.8; 2: 96.7; 3: 94
